TEST_TARGET: UniProtKB O43613
Sequence (O43613 whole entry): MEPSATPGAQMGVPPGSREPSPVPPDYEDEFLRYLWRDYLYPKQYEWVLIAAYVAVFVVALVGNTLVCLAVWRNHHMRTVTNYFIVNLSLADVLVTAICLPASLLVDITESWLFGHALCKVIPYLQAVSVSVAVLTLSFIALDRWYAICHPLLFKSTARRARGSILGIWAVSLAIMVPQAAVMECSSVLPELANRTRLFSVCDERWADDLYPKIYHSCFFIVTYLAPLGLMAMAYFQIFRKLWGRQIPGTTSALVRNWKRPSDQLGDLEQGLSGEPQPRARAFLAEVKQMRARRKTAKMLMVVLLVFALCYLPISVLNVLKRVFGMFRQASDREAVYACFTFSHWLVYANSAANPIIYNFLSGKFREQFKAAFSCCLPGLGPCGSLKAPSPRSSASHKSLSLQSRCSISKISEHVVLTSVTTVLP
RESULT_TYPE: Ki

- O=C(c1cccc(F)c1-c1ncccn1)N1C[C@@H]2CC[C@H]1[C@H](Nc1cnc(C(F)(F)F)cn1)C2 [Example 80]: 7 nM

Measured values drawn from patent US10183953B2 for this set.
